Target sequence: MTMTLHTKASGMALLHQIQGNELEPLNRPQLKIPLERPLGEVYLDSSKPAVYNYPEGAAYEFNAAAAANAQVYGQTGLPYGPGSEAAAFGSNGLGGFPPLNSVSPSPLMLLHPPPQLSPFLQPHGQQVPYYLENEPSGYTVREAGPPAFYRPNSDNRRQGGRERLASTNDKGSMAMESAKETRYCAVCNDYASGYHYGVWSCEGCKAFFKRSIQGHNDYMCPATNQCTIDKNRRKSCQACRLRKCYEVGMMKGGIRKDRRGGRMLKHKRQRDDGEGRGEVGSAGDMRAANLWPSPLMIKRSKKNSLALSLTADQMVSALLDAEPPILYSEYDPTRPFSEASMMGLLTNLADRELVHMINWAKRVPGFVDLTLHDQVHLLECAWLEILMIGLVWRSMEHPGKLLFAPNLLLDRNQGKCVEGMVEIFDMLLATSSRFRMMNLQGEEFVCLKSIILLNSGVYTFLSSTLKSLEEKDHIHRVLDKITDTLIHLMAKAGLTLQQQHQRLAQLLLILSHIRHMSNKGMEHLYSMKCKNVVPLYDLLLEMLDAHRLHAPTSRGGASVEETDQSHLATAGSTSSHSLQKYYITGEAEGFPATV
Property measured: EC50
The reply must contain the numeric value and, after it, the unit.

1) Cc1cc(O)ccc1C1=C(c2ccc(O)cc2C)[C@H]2[C@H]3C(=O)N(c4ccccc4)C(=O)[C@H]3[C@@H]1[S+]2[O-] (mixture of isomers) : 150 nM
2) Cc1cc(O)ccc1C1=C(c2ccc(O)cc2C)[C@H]2[C@@H](S(=O)(=O)Oc3ccccc3Br)C[C@@H]1[S+]2[O-] (relative stereo) : 14 nM
3) Cc1cc(O)ccc1C1=C(c2ccc(O)cc2C)[C@H]2[C@@H](S(=O)(=O)Oc3ccccc3Cl)C[C@@H]1[S+]2[O-] (relative stereo) : 2.8 nM
4) Cc1cc(O)ccc1C1=C(c2ccc(O)cc2C)[C@H]2[C@@H](S(=O)(=O)Oc3ccc(O)cc3)C[C@@H]1[S+]2[O-] (relative stereo) : 9.2 nM
5) O=C1[C@@H]2[C@H](C(=O)N1c1ccccc1)[C@@H]1C(c3ccc(O)cc3)=C(c3ccc(O)cc3)[C@H]2[S+]1[O-] (mixture of isomers) : 7100 nM

Proceed to the following item.
Give its EC50 value. Item: Cc1ccc(C2=C(c3ccc(C)cc3)[C@H]3[C@@H](S(=O)(=O)Oc4ccc(O)cc4)C[C@@H]2[S+]3[O-])cc1 (relative stereo) 5500 nM

* * *

- Subject of test: Estrogen receptor (Homo sapiens)
- Experiment summary: Agonist activity at human ERalpha expressed in HepG2 cells up to 10^-5 M after 24 hrs by luciferase reporter gene assay relative to E2
- Type: functional, cell-based
Property measured: Activity (%)
Just the number please, in %, no unit attached.

Look at this compound and give its reported Activity. Cc1cc(O)ccc1C1=C(c2ccc(O)cc2C)[C@H]2[C@@H](S(=O)(=O)Oc3ccccc3)C[C@@H]1[S+]2[O-] (relative stereo) 62

Please report the recorded Activity for Cc1cc(C2=C(c3ccc(O)c(C)c3)[C@H]3[C@@H](S(=O)(=O)Oc4ccccc4Br)C[C@@H]2[S+]3[O-])ccc1O (relative stereo) . 51

What value of Activity has been reported for the following compound? Cc1cc(C2=C(c3ccc(O)c(C)c3)[C@H]3[C@@H](S(=O)(=O)Oc4ccccc4)C[C@@H]2[S+]3[O-])ccc1O (relative stereo) 65
